We begin with a simple list: items and their reported pIC50.
Target: pseudo-kinase domain (JH2, amino-acids 536-812) of human Wild Type JAK2 (Homo sapiens (Human), UniProt O60674, F794H/W659A/W777A)
Sequence (O60674 536-812 W659A/W777A/F794H): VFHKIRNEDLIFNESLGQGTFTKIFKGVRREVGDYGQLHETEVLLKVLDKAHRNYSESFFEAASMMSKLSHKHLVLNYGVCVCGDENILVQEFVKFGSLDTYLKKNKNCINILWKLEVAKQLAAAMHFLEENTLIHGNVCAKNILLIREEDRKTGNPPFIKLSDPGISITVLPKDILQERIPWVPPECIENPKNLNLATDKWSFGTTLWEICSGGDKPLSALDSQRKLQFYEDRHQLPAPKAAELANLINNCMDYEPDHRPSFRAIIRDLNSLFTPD
Test: JAK2 LanthaScreen JH2-WT Binding Assay
Conditions: JAK2 JH2-WT 0.145 nM, 50 nM fluorescent tracer, 1 hour at 25° C.; read-out: JH2 BIND WT IC50
pIC50: −log10 of the molar value.

Example cases with answers are listed next.
INSERT INTO measurements (compound, result) VALUES
  ('CS(=O)(=O)C1CCN(Cc2ccc(-c3cc4c5c(cnc4[nH]3)NC(=O)N(C3CCN(S(N)(=O)=O)CC3)C5)cc2)CC1 [Example 7]', '6.00 to 6.30'),
  ('CN1C(=O)NCc2c1cnc1[nH]c(-c3ccc(CN4CCC(S(C)(=O)=O)CC4)cc3)cc21 [Example 1]', '6.30 to 7.00');

Turning now to a further compound:
Request: Reported pIC50, compound COCCNc1ccc(N2Cc3c(cnc4[nH]c(-c5ccc(CN6CCC(S(C)(=O)=O)CC6)cc5)cc34)N(C)C2=O)cc1 [Example 8] : ____
Response: 6.30 to 7.00
